Known Fik Kinase %Inhibition of a selection of compounds
biological target: FLK-1 receptor (Mus musculus, UniProt P35918); construct: expressed in transfected cells; host or cells: NIH3T3 C7#3; assay: FLK-1 ELISA (kinase activity of the FLK-1 receptor in FLK-1/NIH3T3 cells, VEGF stimulated); format: cell-based; design: concentration or dose not given beside the values
Sequence (P35918 20-1345): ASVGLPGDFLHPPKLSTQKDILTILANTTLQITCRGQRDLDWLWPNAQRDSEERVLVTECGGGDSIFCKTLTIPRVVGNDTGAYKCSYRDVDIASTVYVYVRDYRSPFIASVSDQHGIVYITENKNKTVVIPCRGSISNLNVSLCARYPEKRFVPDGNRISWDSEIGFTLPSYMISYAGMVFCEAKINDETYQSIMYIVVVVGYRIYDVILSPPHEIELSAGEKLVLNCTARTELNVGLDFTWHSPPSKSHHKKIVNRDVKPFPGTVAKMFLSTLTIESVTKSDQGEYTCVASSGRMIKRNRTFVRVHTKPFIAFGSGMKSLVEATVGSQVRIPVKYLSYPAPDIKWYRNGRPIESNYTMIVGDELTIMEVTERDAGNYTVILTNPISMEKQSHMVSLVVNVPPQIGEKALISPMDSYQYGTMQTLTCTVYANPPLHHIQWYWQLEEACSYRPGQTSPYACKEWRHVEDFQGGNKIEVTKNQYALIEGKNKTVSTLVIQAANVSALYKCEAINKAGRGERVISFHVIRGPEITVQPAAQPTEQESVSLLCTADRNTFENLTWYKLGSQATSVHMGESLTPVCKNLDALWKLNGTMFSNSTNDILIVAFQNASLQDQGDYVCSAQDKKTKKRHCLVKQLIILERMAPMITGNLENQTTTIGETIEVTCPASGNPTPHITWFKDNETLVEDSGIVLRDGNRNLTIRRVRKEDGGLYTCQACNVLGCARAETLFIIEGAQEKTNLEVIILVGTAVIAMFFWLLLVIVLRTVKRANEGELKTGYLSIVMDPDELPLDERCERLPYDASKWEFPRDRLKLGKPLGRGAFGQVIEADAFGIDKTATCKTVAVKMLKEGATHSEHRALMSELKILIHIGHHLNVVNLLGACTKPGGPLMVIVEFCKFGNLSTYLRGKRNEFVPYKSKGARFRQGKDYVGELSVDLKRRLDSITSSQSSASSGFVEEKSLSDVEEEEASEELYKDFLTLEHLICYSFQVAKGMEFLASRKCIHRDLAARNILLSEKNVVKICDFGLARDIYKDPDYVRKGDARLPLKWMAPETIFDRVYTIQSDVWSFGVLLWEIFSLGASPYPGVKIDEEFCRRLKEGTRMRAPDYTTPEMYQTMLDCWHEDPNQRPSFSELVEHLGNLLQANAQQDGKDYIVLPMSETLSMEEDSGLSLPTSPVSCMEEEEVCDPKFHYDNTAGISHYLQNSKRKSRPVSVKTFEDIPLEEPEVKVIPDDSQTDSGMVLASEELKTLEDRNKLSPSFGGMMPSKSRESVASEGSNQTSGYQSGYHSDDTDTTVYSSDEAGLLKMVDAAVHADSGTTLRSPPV
Write down the numeric answer in % and omit the unit.

Some solved cases for reference:
O=C1Nc2ccc(S(=O)(=O)Nc3ccc(C(F)(F)F)cc3)cc2C1=CC(c1cccs1)C(F)(F)F (centres unmarked) ... 13.1
O=C1Nc2ccc(S(=O)(=O)Nc3ccc(C(F)(F)F)cc3)cc2C1=Cc1cc2c3c(c1O)CCCN3CCC2 ... 13.8
O=C1Nc2ccc(S(=O)(=O)N3CCOCC3)cc2C1=Cc1cc([N+](=O)[O-])ccc1O ... 8.5

Exercise: Checklist item: Fik Kinase %Inhibition tested on FLK-1 receptor (Mus musculus, UniProt P35918), entry CC(C)c1ccc2occ(C=C3C(=O)Nc4ccc(S(=O)(=O)Nc5ccc(C(F)(F)F)cc5)cc43)c(=O)c2c1 , value?
Key: 7.0

Exercise: Checklist item: Fik Kinase %Inhibition tested on FLK-1 receptor (Mus musculus, UniProt P35918), entry COc1cc(OC)c(C=C2C(=O)Nc3ccc(S(=O)(=O)N4CCOCC4)cc32)c(OC)c1 , value?
Key: 13.5

Exercise: Checklist item: Fik Kinase %Inhibition tested on FLK-1 receptor (Mus musculus, UniProt P35918), entry Cc1ccc(C=C2C(=O)Nc3ccc(CCCl)cc32)s1 , value?
Key: -17.0

Exercise: Checklist item: Fik Kinase %Inhibition tested on FLK-1 receptor (Mus musculus, UniProt P35918), entry Cc1c(Br)ccc2c1C(=Cc1cccc(Oc3ccccc3)c1)C(=O)N2 , value?
Key: 3.8

Exercise: Checklist item: Fik Kinase %Inhibition tested on FLK-1 receptor (Mus musculus, UniProt P35918), entry COc1ccc(C=C2C(=O)Nc3c(Br)cc(Br)cc32)c(O)c1 , value?
Key: -1.0

Exercise: Checklist item: Fik Kinase %Inhibition tested on FLK-1 receptor (Mus musculus, UniProt P35918), entry CCc1c(C)[nH]c(C=C2C(=O)Nc3ccc(Br)c(C)c32)c1C , value?
Key: 25.6

Exercise: Checklist item: Fik Kinase %Inhibition tested on FLK-1 receptor (Mus musculus, UniProt P35918), entry Cn1cc(Cl)c(C=C2C(=O)Nc3ccc(CCCl)cc32)n1 , value?
Key: 12.1

Exercise: Checklist item: Fik Kinase %Inhibition tested on FLK-1 receptor (Mus musculus, UniProt P35918), entry CC(C)(C)c1cc(C=C2C(=O)Nc3ccc(I)cc32)cc(Cl)c1OCc1ccccc1 , value?
Key: 12.1

----------
molecular target: FLK-1 receptor (Mus musculus, UniProt P35918); construct: expressed in transfected cells; host or cells: NIH3T3 C7#3; assay: FLK-1 ELISA (kinase activity of the FLK-1 receptor in FLK-1/NIH3T3 cells, VEGF stimulated); assay type: cell-based
property: Fik Kinase %Inhibition (%)
Write down the numeric answer in % and omit the unit.

Some solved cases for reference:
Cc1c(Br)ccc2c1C(=Cc1cccs1)C(=O)N2 ... -7.7
CCOC(=O)c1[nH]c(C=C2C(=O)Nc3ccc(Br)c(C)c32)c(C(=O)OC)c1C ... 24.9
CC(C)(C)c1cc(C=C2C(=O)Nc3ccc(S(=O)(=O)Nc4ccc(C(F)(F)F)cc4)cc32)cc(C(C)(C)C)c1OCc1ccccc1 ... 10.6
CNS(=O)(=O)c1ccc2c(c1)C(=Cc1cc(C)c(C)s1)C(=O)N2 ... 15.2
O=C1Nc2ccc(I)cc2C1=Cc1ncc[nH]1 ... -20.3

Exercise: Checklist item: Fik Kinase %Inhibition tested on FLK-1 receptor (Mus musculus, UniProt P35918), entry Cc1ccc2occ(C=C3C(=O)Nc4ccc(Br)c(C)c43)c(=O)c2c1 , value?
Key: 13.8

Value source: patent EP1247803A2
